These entries and their values trace back to the supplement of paper PMC11781733.

system: Dugesia japonica; assay: loss of heat-induced scrunching incidence (% planarians (vehicle-normalised)); higher = higher incidence or increase relative to vehicle control; details: exposure time: 15 min to 3 h acute
test.readout: loss of heat-induced scrunching incidence
Answer using only a numeral; do not append any unit.

Ask: May I ask what loss of heat-induced scrunching incidence has been recorded for CN1CCN(CCCN2c3ccccc3Sc3ccc(Cl)cc32)CC1 [prochloroperazine] (100 µM) ?
Reply: 75

Ask: # loss of heat-induced scrunching incidence lookup, item Cc1ncc2n1-c1ccc(Cl)cc1C(c1ccccc1F)=NC2 [midazolam] (31.6 µM)
Reply: 8.33

---

system: Dugesia japonica; experiment: C-shape incidence (% planarians (vehicle-normalised)); higher = higher incidence or increase relative to vehicle control; conditions: exposure time: 15 min to 3 h acute
Counter-ions that a name gives are not always drawn.
test.readout: C-shape incidence
// response body must contain only the number

Ask: # C-shape incidence lookup, item CNCCC(Oc1ccc(C(F)(F)F)cc1)c1ccccc1 (stereo unspecified) [fluoxetine hydrochloride] (100 µM)
Reply: 33.3

Ask: Data request, read-out C-shape incidence, for CN(C)CCC[C@@]1(c2ccc(F)cc2)OCc2cc(C#N)ccc21 [escitalopram] (100 µM)
Reply: 0

Ask: // returns reported C-shape incidence for input CN1C(=O)CN=C(c2ccccc2)c2cc(Cl)ccc21 [diazepam] (1 µM)
Reply: 0

Ask: For CN1CC(=O)N=C1NC(=O)Nc1cccc(Cl)c1 [fenobam] (56.2 µM) , what is its reported C-shape incidence?
Reply: 0

Ask: Report C-shape incidence for CN(C)CCCN1c2ccccc2CCc2ccccc21 [imipramine] (31.6 µM) please.
Reply: 0

Ask: Entry CN1CCN(C2=Nc3cc(Cl)ccc3Nc3ccccc32)CC1 [clozapine] (10 µM) has what C-shape incidence?
Reply: 4.17

---

test system: Dugesia japonica; experiment: noxious heat displacement strength vs vehicle (% change vs vehicle); higher = higher incidence or increase relative to vehicle control; conditions: exposure time: 15 min to 3 h acute
Counter-ions that a name gives are not always drawn.
# cutoff -30 applies to noxious heat displacement strength; >= gives MET, < gives NOT MET

Ask: Determine whether this compound has noxious heat displacement strength no lower than -30: CN(C)CCCC1(c2ccc(F)cc2)OCc2cc(C#N)ccc21 (centres undefined) [citalopram hydrobromide] (31.6 µM)
Reply: MET

Ask: Does noxious heat displacement strength meet or surpass -30 for O=C1CC2(CCCC2)CC(=O)N1CCCCN1CCN(c2ncccn2)CC1 [buspirone] (1 µM) ?
Reply: MET

Ask: Record CCCCNc1c(C(=O)OCC)c(C)nc2c1cnn2CC [tracazolate hydrochloride] (31.6 µM) ; criterion: noxious heat displacement strength no lower than -30. Met?
Reply: NOT MET

Ask: Item Cc1cc2c(s1)Nc1ccccc1N=C2N1CCN(C)CC1 [olanzapine] (316 µM) with noxious heat displacement strength of -30 or above?
Reply: NOT MET

Ask: Is noxious heat displacement strength at least -30? Consider O=C1CCc2ccc(OCCCCN3CCN(c4cccc(Cl)c4Cl)CC3)cc2N1 [aripiprazole] (100 µM)
Reply: NOT MET

Ask: Decide: noxious heat displacement strength of Cc1ncc2n1-c1ccc(Cl)cc1C(c1ccccc1F)=NC2 [midazolam] (31.6 µM) >= -30?
Reply: MET

Ask: Check if noxious heat displacement strength >= -30 (inclusive). Item: CN(C)CCCC1(c2ccc(F)cc2)OCc2cc(C#N)ccc21 (centres undefined) [citalopram hydrobromide] (1000 µM)
Reply: NOT MET

Ask: Can O=C1CC2(CCCC2)CC(=O)N1CCCCN1CCN(c2ncccn2)CC1 [buspirone] (31.6 µM) be said to have noxious heat displacement strength at or above -30?
Reply: NOT MET

Ask: Could you tell me if the measured noxious heat displacement strength of CN[C@H]1CC[C@@H](c2ccc(Cl)c(Cl)c2)c2ccccc21 [sertraline hydrochloride] (10 µM) reaches -30 or more?
Reply: MET

Ask: Given O=C(CCCN1CCC(O)(c2ccc(Cl)cc2)CC1)c1ccc(F)cc1 [haloperidol] (100 µM) , state whether its noxious heat displacement strength is at least -30.
Reply: MET

Ask: Decide: is the reported value of noxious heat displacement strength for O=C(CCCN1CC=C(n2c(=O)[nH]c3ccccc32)CC1)c1ccc(F)cc1 [droperidol] (1 µM) equal to or greater than -30?
Reply: NOT MET

Ask: Decide: noxious heat displacement strength of O=C(CCCN1CC=C(n2c(=O)[nH]c3ccccc32)CC1)c1ccc(F)cc1 [droperidol] (100 µM) >= -30?
Reply: MET

Ask: Tell me whether noxious heat displacement strength is at least -30 here: O=C1CC2(CCCC2)CC(=O)N1CCCCN1CCN(c2ncccn2)CC1 [buspirone] (10 µM)
Reply: NOT MET

Ask: Item CNCCC(Oc1ccc(C(F)(F)F)cc1)c1ccccc1 (centres undefined) [fluoxetine hydrochloride] (3.16 µM) with noxious heat displacement strength of -30 or above?
Reply: MET

---

test system: Dugesia japonica; assay: loss of heat-induced scrunching incidence (% planarians (vehicle-normalised)); higher = higher incidence or increase relative to vehicle control; details: exposure time: 15 min to 3 h acute
Structures can show the parent of a compound that is named as a salt.
Please go through the items and note down their loss of heat-induced scrunching incidence.

Ask: Recorded loss of heat-induced scrunching incidence for O=C(O)C(=O)O [oxalic acid] (316 µM) , please?
Reply: ≤ 0

Ask: Data request, read-out loss of heat-induced scrunching incidence, for CN[C@H]1CC[C@@H](c2ccc(Cl)c(Cl)c2)c2ccccc21 [sertraline hydrochloride] (3.16 µM)
Reply: ≤ 0

Ask: What measured loss of heat-induced scrunching incidence goes with CN(C)CCCN1c2ccccc2CCc2ccccc21 [imipramine] (3.16 µM) ?
Reply: ≤ 0

---

tested on: Dugesia japonica; assay: loss of phototaxis incidence (% planarians (vehicle-normalised)); higher = higher incidence or increase relative to vehicle control; settings: exposure time: 15 min to 3 h acute
Where a name gives a salt, the structure may show the parent alone.
test.readout: loss of phototaxis incidence

Ask: // query loss of phototaxis incidence value for entry CN(C)CCCC1(c2ccc(F)cc2)OCc2cc(C#N)ccc21 (stereo not drawn) [citalopram hydrobromide] (100 µM)
Reply: ≤ 0

Ask: Field request: loss of phototaxis incidence | item: CN(C)CCC[C@@]1(c2ccc(F)cc2)OCc2cc(C#N)ccc21 [escitalopram] (316 µM)
Reply: ≤ 0

Ask: For the molecule O=C(CCCN1CCC(O)(c2ccc(Br)cc2)CC1)c1ccc(F)cc1 [bromperidol] (3.16 µM) , what loss of phototaxis incidence is on record?
Reply: ≤ 0

---

test system: Dugesia japonica; assay: loss of phototaxis incidence (% planarians (vehicle-normalised)); higher = higher incidence or increase relative to vehicle control; conditions: exposure time: 15 min to 3 h acute
test.readout: loss of phototaxis incidence

Ask: Field request: loss of phototaxis incidence | item: Cc1ncc2n1-c1ccc(Cl)cc1C(c1ccccc1F)=NC2 [midazolam] (31.6 µM)
Reply: ≤ 0

Ask: Can you look up the measured loss of phototaxis incidence of CN1CC(=O)N=C1NC(=O)Nc1cccc(Cl)c1 [fenobam] (178 µM) for me?
Reply: ≤ 0

Ask: Look up loss of phototaxis incidence for this compound: Cc1ncc2n1-c1ccc(Cl)cc1C(c1ccccc1F)=NC2 [midazolam] (10 µM)
Reply: ≤ 0

---

Assign loss of phototaxis incidence to each entry below.
test system: Dugesia japonica; experiment: loss of phototaxis incidence (% planarians (vehicle-normalised)); higher = higher incidence or increase relative to vehicle control; details: exposure time: 15 min to 3 h acute
Lab note: record just the number, no unit beside it.

Ask: May I ask what loss of phototaxis incidence has been recorded for CN1C(=O)CN=C(c2ccccc2)c2cc(Cl)ccc21 [diazepam] (10 µM) ?
Reply: 50

Ask: Which measured loss of phototaxis incidence value corresponds to CN1CCN(CCCN2c3ccccc3Sc3ccc(Cl)cc32)CC1 [prochloroperazine] (31.6 µM) ?
Reply: 63.2

Ask: Returns the measured loss of phototaxis incidence for the input molecule. Input: O=C1CC2(CCCC2)CC(=O)N1CCCCN1CCN(c2ncccn2)CC1 [buspirone] (31.6 µM)
Reply: 54.2

---

tested on: Dugesia japonica; assay: noxious heat displacement strength vs vehicle (% change vs vehicle); higher = higher incidence or increase relative to vehicle control; conditions: exposure time: 15 min to 3 h acute
Counter-ions that a name gives are not always drawn.
I'd be grateful if you could share measured noxious heat displacement strength for these entries.
Reply with the value as a number alone.

Ask: Tell me the measured noxious heat displacement strength of CN1C(=O)CN=C(c2ccccc2)c2cc(Cl)ccc21 [diazepam] (100 µM) , please.
Reply: -45.6

Ask: For the molecule CN(C)CCCN1c2ccccc2CCc2ccccc21 [imipramine] (0.316 µM) , what noxious heat displacement strength is on record?
Reply: 23.7

Ask: Quick one: noxious heat displacement strength of CNCC[C@H](Oc1cccc2ccccc12)c1cccs1 [s-duloxetine] (31.6 µM) ?
Reply: -61.5

Ask: Quick one: noxious heat displacement strength of CC(NC(C)(C)C)C(=O)c1cccc(Cl)c1 (stereo unspecified) [bupropion] (31.6 µM) ?
Reply: -22.3

Ask: Look up noxious heat displacement strength for this molecule: O=C(CCCN1CC=C(n2c(=O)[nH]c3ccccc32)CC1)c1ccc(F)cc1 [droperidol] (3.16 µM)
Reply: -42.7

Ask: # get_value(readout='noxious heat displacement strength', item= CN(C)CCCN1c2ccccc2CCc2ccccc21 [imipramine] (31.6 µM) )
Reply: -21.9

Ask: Entry under review: O=C1CC2(CCCC2)CC(=O)N1CCCCN1CCN(c2ncccn2)CC1 [buspirone] (100 µM) . Reported noxious heat displacement strength?
Reply: -53.2

Ask: Can you look up the measured noxious heat displacement strength of CNCCC(Oc1ccc(C(F)(F)F)cc1)c1ccccc1 (stereo unspecified) [fluoxetine hydrochloride] (31.6 µM) for me?
Reply: -49.6

Ask: # query: noxious heat displacement strength of entry CN1CC(=O)N=C1NC(=O)Nc1cccc(Cl)c1 [fenobam] (316 µM)
Reply: -32.2

Ask: Quick one: noxious heat displacement strength of CCCCNc1c(C(=O)OCC)c(C)nc2c1cnn2CC [tracazolate hydrochloride] (3.16 µM) ?
Reply: -6.19

Ask: Any idea what noxious heat displacement strength was measured for CN1CC(=O)N=C1NC(=O)Nc1cccc(Cl)c1 [fenobam] (56.2 µM) ?
Reply: -21.7

Ask: What noxious heat displacement strength value was documented for this molecule, O=C(CCCN1CCC(O)(c2ccc(Br)cc2)CC1)c1ccc(F)cc1 [bromperidol] (10 µM) ?
Reply: -32.1

Ask: Reported noxious heat displacement strength for CCCCNc1c(C(=O)OCC)c(C)nc2c1cnn2CC [tracazolate hydrochloride] (10 µM) : what is it?
Reply: -3.78

Ask: Which noxious heat displacement strength is reported for this molecule? O=C(CCCN1CC=C(n2c(=O)[nH]c3ccccc32)CC1)c1ccc(F)cc1 [droperidol] (31.6 µM)
Reply: -34

Ask: Entry under review: Cc1cc2c(s1)Nc1ccccc1N=C2N1CCN(C)CC1 [olanzapine] (100 µM) . Reported noxious heat displacement strength?
Reply: -50.1

Ask: Value lookup for noxious heat displacement strength; key = CCCCNc1c(C(=O)OCC)c(C)nc2c1cnn2CC [tracazolate hydrochloride] (100 µM)
Reply: -63.6

Ask: Can you share its noxious heat displacement strength? I mean this molecule: CC(NC(C)(C)C)C(=O)c1cccc(Cl)c1 (stereo unspecified) [bupropion] (10 µM)
Reply: -1.43

Ask: Suppose we examine the molecule CN(C)CCC[C@@]1(c2ccc(F)cc2)OCc2cc(C#N)ccc21 [escitalopram] (31.6 µM) ; what noxious heat displacement strength value has been reported?
Reply: -31.5

Ask: State the recorded noxious heat displacement strength for this entry: CN[C@H]1CC[C@@H](c2ccc(Cl)c(Cl)c2)c2ccccc21 [sertraline hydrochloride] (31.6 µM)
Reply: 3.64

Ask: So what's the measured noxious heat displacement strength for this one? O=C1CCc2ccc(OCCCCN3CCN(c4cccc(Cl)c4Cl)CC3)cc2N1 [aripiprazole] (1 µM)
Reply: 14.8

Ask: noxious heat displacement strength for CN1CCN(C2=Nc3cc(Cl)ccc3Nc3ccccc32)CC1 [clozapine] (3.16 µM) ?
Reply: -40.6

Ask: Consider the molecule CNCC[C@H](Oc1cccc2ccccc12)c1cccs1 [s-duloxetine] (3.16 µM) and give its measured noxious heat displacement strength.
Reply: -40.2

Ask: Given the entry O=C(CCCN1CCC(O)(c2ccc(Br)cc2)CC1)c1ccc(F)cc1 [bromperidol] (1 µM) , report its measured noxious heat displacement strength.
Reply: -35.1

Ask: So what's the measured noxious heat displacement strength for this one? CNCCC(Oc1ccc(C(F)(F)F)cc1)c1ccccc1 (stereo unspecified) [fluoxetine hydrochloride] (1 µM)
Reply: 12

Ask: Fill in the blank: the reported noxious heat displacement strength of CN(C)CCC[C@@]1(c2ccc(F)cc2)OCc2cc(C#N)ccc21 [escitalopram] (100 µM) is ____.
Reply: -34

Ask: For the molecule shown here, CN[C@H]1CC[C@@H](c2ccc(Cl)c(Cl)c2)c2ccccc21 [sertraline hydrochloride] (100 µM) , give the reported noxious heat displacement strength.
Reply: -27.1

Ask: // lookup noxious heat displacement strength for CN(C)CCCN1c2ccccc2CCc2ccccc21 [imipramine] (1 µM)
Reply: -4.45

Ask: I'd like to know its noxious heat displacement strength. The molecule in question is CN(C)CCC[C@@]1(c2ccc(F)cc2)OCc2cc(C#N)ccc21 [escitalopram] (10 µM)
Reply: -2.51

Ask: Would you kindly share the measured noxious heat displacement strength for CN1C(=O)CN=C(c2ccccc2)c2cc(Cl)ccc21 [diazepam] (10 µM) ?
Reply: -17.4

Ask: Please look up its noxious heat displacement strength: [Cl-].[Na+] [sodium chloride] (3470 µM)
Reply: -5.24

Ask: // returns reported noxious heat displacement strength for input O=C(CCCN1CCC(O)(c2ccc(Br)cc2)CC1)c1ccc(F)cc1 [bromperidol] (3.16 µM)
Reply: -37

Ask: Consider the molecule Cc1ncc2n1-c1ccc(Cl)cc1C(c1ccccc1F)=NC2 [midazolam] (56.2 µM) and give its measured noxious heat displacement strength.
Reply: -25.6

Ask: What value of measured noxious heat displacement strength is listed for CN1C(=O)CN=C(c2ccccc2)c2cc(Cl)ccc21 [diazepam] (3.16 µM) ?
Reply: -6.66

Ask: Fill in: noxious heat displacement strength of CN(C)CCCC1(c2ccc(F)cc2)OCc2cc(C#N)ccc21 (stereo unspecified) [citalopram hydrobromide] (100 µM) is ___
Reply: -22.5

Ask: For the molecule CN1C(=O)CN=C(c2ccccc2)c2cc(Cl)ccc21 [diazepam] (31.6 µM) , what noxious heat displacement strength is on record?
Reply: -21.6

Ask: So what does the record say about noxious heat displacement strength for O=C1CCc2ccc(OCCCCN3CCN(c4cccc(Cl)c4Cl)CC3)cc2N1 [aripiprazole] (3.16 µM) ?
Reply: 0.14
